Reference source for all entries: patent US10246483B2

TARGET_SYSTEM: human FXR (NR1H4) (Homo sapiens)
Construct: host or cells: CHO (Chinese hamster ovary) reporter cells
Sequence (Q96RI1 1-486): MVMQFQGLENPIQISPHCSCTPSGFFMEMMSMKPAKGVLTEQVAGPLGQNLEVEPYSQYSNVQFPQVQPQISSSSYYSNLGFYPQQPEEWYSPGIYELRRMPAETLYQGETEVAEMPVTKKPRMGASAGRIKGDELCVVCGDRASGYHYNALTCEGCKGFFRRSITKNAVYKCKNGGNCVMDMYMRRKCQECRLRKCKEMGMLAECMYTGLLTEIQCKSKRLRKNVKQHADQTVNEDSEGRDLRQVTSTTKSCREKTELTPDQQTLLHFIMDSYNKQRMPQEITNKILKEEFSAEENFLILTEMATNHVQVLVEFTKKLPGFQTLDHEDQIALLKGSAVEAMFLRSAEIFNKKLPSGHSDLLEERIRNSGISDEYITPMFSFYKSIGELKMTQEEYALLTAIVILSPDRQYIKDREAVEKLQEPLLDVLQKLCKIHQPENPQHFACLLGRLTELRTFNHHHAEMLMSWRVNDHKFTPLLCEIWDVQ
EXPERIMENT: Human FXR (NR1H4) reporter assay (Gal4 promoter driven transactivation, luciferase)
Format: cell-based
PARAMETER_MEASURED: EC50

input: Item CC[C@@H]1C2C[C@H](O)CCC2(C)[C@H]2CCC3(C)C([C@H](C)CCC(=O)NC(=N)Nc4ccccc4)CC[C@H]3[C@@H]2[C@@H]1O (stereo partly shown) : provide EC50
output: 100 to 1000 nM
